Assay: Plasma and brain levels of 5 and 6 by LC-MS/MS 25 min after intravenous administration
Type: in vivo, C57BL/6 mice
Conditions: C57BL/6, mouse, in vivo
experimental.endpoint: Kp at 25 min

Please indicate Kp at 25 min recorded for CC(=N)NCc1cccc(/C=[N+](\[O-])C(C)(C)C)c1 [compound 5]
0.029
